# EXPERIMENTAL PROTOCOL: CHOP2 Reporter Counterscreen Assay for Inhibitors of Ubiquitin-specific Protease USP2a;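 also: activated enterokinase alone at 50 pM in a cell-free format rather than USP2a or CHOP2; nearly all actives have a fitted effect of over 55% in size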; also: potency is read from the fitted curve at half-maximal effect
# APPLIED CONDITIONS: purified enterokinase, fluorogenic substrate, 485/531 nm; series mostly up to 38.3 µM
# Procedure: NIH Molecular Libraries Probe Centers Network [MLPCN] NIH Chemical Genomics Center [NCGC] MLPCN Grant: XO1-MH079852-01 PI Name: Nicholson, Ben. […] The assay gives a fluorescent read-out at excitation/emission wavelengths of 485/531. […] NCGC Assay Protocol: The assay buffer, prepared fresh at the day of the assay, contains 20mM Tris-HCl pH 8.0, 2mM CaCl2, 2mM beta-Mercaptoethanol, 0.05% CHAPS. […] The time zero reading was used to flag fluorescence artifacts.
Inconclusive results are not listed. Activity calls are given as the source filed them. Calls follow the shape of the dose curve; as a rule, active = well fitted inhibition curve with a large enough effect; inconclusive = small, poorly fitted or top-dose-only effect; inactive = flat fitted curve, though single readings scatter.
MEASURED PARAMETER: Potency

- COMPOUND: "CCOc1ccccc1N1C(=O)CC(Nc2ccc(N3CCOCC3)cc2)C1=O (stereo not drawn)"
  Potency: "inactive"
- COMPOUND: "Cc1ccc(NC(=O)CS(=O)CC(=O)Nc2ccc(N3CCOCC3)cc2)cc1Cl (stereo not drawn)"
  Potency: "inactive"
- COMPOUND: "COc1ccc(CC(NC(C)=O)C(=O)NC2CCN(c3nc(C)cc(C)c3C#N)CC2)c(OC)c1 (stereo not drawn)"
  Potency: "inactive"
- COMPOUND: "CCCCCCCCCCC[N+](C)(C)CC/C=C1/c2ccccc2Sc2ccc(Cl)cc21"
  Potency: "11.2 µM (active)"
- COMPOUND: "CCCCC1CCC(C(=O)Nc2ccc(S(=O)(=O)Nc3nccs3)cc2)CC1 (stereo not drawn)"
  Potency: "inactive"

# input Recorded Potency of COC(=O)CC1Oc2ccc(C)cc2NC1=O (stereo not drawn) , please.
# output inactive

# input Recorded Potency of CCCCC(CC)CN=C(N)NC(N)=NCCCCCCN=C(N)NC(N)=NCC(CC)CCCC (stereo not drawn) , please.
# output 5.62 µM (active)

* * *

# EXPERIMENTAL PROTOCOL: CHOP2 Reporter Counterscreen Assay for Inhibitors of Ubiquitin-specific Protease USP2a;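 also: activated enterokinase alone at 50 pM in a cell-free format rather than USP2a or CHOP2; nearly all actives have a fitted effect of over 55% in size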
# APPLIED CONDITIONS: purified enterokinase, fluorogenic substrate, 485/531 nm; series mostly up to 38.3 µM
# Method: NIH Molecular Libraries Probe Centers Network [MLPCN] NIH Chemical Genomics Center [NCGC] MLPCN Grant: XO1-MH079852-01 PI Name: Nicholson, Ben. […] The assay gives a fluorescent read-out at excitation/emission wavelengths of 485/531. […] NCGC Assay Protocol: The assay buffer, prepared fresh at the day of the assay, contains 20mM Tris-HCl pH 8.0, 2mM CaCl2, 2mM beta-Mercaptoethanol, 0.05% CHAPS. […] The time zero reading was used to flag fluorescence artifacts.
Records with an inconclusive call do not appear. Active and inactive are the calls of the source. Calls come from the whole dose curve; as a rule, active = well fitted inhibition curve with a large enough effect; inconclusive = small, poorly fitted or top-dose-only effect; inactive = flat fitted curve, though single readings scatter.
Parameter call: string, one of active, inactive

Worked examples follow.
- COMPOUND: "COc1ccc(-c2[nH]ncc2/C=C(/C#N)C(=O)NC2CCCCC2)cc1"
  DISCRETE LABEL: "inactive"
- COMPOUND: "CC(OC(=O)c1nsc(Cl)c1Cl)C(=O)NCc1ccco1 (stereo not drawn)"
  DISCRETE LABEL: "inactive"
- COMPOUND: "CCOc1cccc(NC(=O)/C(C#N)=C\\c2cn(CC(=O)O)c3ccccc23)c1"
  DISCRETE LABEL: "inactive"

# input Assay result, entry Cc1ccccc1OCc1nc2ccccc2c(=O)n1N — outcome?
# output inactive

# input Assay result, entry CC(C(=O)Nc1ccc(C(=O)O)c(O)c1)N1C(=O)/C(=C\c2ccco2)SC1=S (stereo not drawn) — outcome?
# output active

# input Assay result, entry Cc1c(C(=O)NCc2c(F)cc(F)cc2F)oc2ccc(S(=O)(=O)N3CCOCC3)cc12 — outcome?
# output inactive

# input Assay result, entry O=C(CSc1nc2ccccc2[nH]1)Nc1ccc2c(c1)OCCO2 — outcome?
# output inactive

# input Assay result, entry Cc1ccc(C2=N/C(=C\c3c(C)nn(-c4ccccc4)c3N3CCCC3)C(=O)O2)cc1 — outcome?
# output inactive

# input Assay result, entry Cc1ccc([C@@H]2CC=C(C(=O)O)[C@H](c3cccc(Cl)c3)N2S(=O)(=O)c2ccc(C)cc2)cc1 — outcome?
# output inactive

# input Assay result, entry CCOc1ccc(NC(=O)N(CCCN2CCOCC2)Cc2cccnc2)cc1 — outcome?
# output inactive

# input Assay result, entry CCCCCCCC/C=C\CCCCCCCC(=O)NCCc1ccc(O)c(O)c1 — outcome?
# output inactive

# input Assay result, entry O=C(NCc1ccccc1)C1CCC1 — outcome?
# output inactive

# input Assay result, entry CNC(=O)NC(=O)CSc1ccc(NC(C)=O)cc1 — outcome?
# output inactive

# input Assay result, entry COc1ccc(/C=C2/SC(=S)N(c3ccc(S(=O)(=O)Nc4nccs4)cc3)C2=O)cc1 — outcome?
# output active

# input Assay result, entry N#Cc1c(SCC(=O)Nc2nc3ccccc3s2)sc2c(O)cc(=O)[nH]c12 — outcome?
# output active

# input Assay result, entry CCOc1cc(/C=C2\C(=O)N(c3nc(-c4ccc(Br)cc4)cs3)N=C2c2ccccc2)ccc1O — outcome?
# output active

# input Assay result, entry CCCCCCCCCCOC(=O)Cn1c(COc2cccc(C)c2)[n+](C)c2ccccc21 — outcome?
# output active

# input Assay result, entry O=C(O)CCn1c(C2CCCCC2)nc2ccccc21 — outcome?
# output inactive

# input Assay result, entry COC(=O)c1c(NC(=O)c2cccnc2)sc(C)c1C — outcome?
# output inactive

# input Assay result, entry COc1ccc(C(=O)Nc2ccc(N3CCCC3)cc2)cc1OC — outcome?
# output inactive

# input Assay result, entry CC(=O)N1CCCc2cc(S(=O)(=O)CCC(=O)N3CCN(c4cccc(C)c4)C(C)C3)ccc21 (stereo not drawn) — outcome?
# output inactive

# input Assay result, entry O=C(c1ccccc1N(Cc1ccccc1)S(=O)(=O)c1ccccc1)N1CCOCC1 — outcome?
# output inactive

# input Assay result, entry CC1CCN(c2ccc3c(c2)S(=O)(=O)c2cccc(C(=O)NC4CC4)c2C3=O)CC1 — outcome?
# output inactive
